Values compiled from patent US9198433B2.

Tested on: Botrytis cinerea
Test: Test F: tomato Botrytis, preventive spray on tomato seedlings, disease rating
Format: in vivo
Conditions: 200 ppm
Excerpt: The test compounds were first dissolved in acetone in an amount equal to 3% of the final volume and then suspended at the desired concentration (in ppm) in acetone and purified water (50/50 mix) containing 250 ppm of the surfactant Trem® 014 (polyhydric alcohol esters). The resulting test suspensions were then used in Tests A-L. Spraying a 200 ppm test suspension to the point of run-off on the test plants was the equivalent of an application rate of 500 g/ha. […]
OBSERVABLE: Percentage Disease Control, Test F (%)
Express it in %; write the number only.

Below, 3 compounds whose answers are already recorded.
{"SMILES NOTATION": "COC(=O)NCc1cc(-c2ccn(CCC(C)C)n2)ccc1Cl", "Percentage Disease Control, Test F (%)": 0}
{"SMILES NOTATION": "COC(=O)NCc1cc(-c2ccn(-c3ccc(Cl)c(Cl)c3)n2)ccc1Cl", "Percentage Disease Control, Test F (%)": 94}
{"SMILES NOTATION": "CCSc1nsc(-n2ccc(-c3ccc(Cl)c(CNC(=O)OC)c3)n2)n1", "Percentage Disease Control, Test F (%)": 0}

Query: Percentage Disease Control, Test F; subject: `COC(=O)NCc1cc(-c2ccn(-c3cccc(C)n3)n2)ccc1Cl`
Result: 0

Query: Percentage Disease Control, Test F; subject: `COC(=O)NCc1cc(C(C)=NOCC[Si](C)(C)C)ccc1Cl`
Result: 0

Query: Percentage Disease Control, Test F; subject: `COC(=O)NNc1cc(-c2ccn(-c3cccc(C(F)(F)F)c3)n2)ccc1Cl`
Result: 16

Query: Percentage Disease Control, Test F; subject: `COC(=O)NCc1cc(-c2ccn(-c3cccc(C(F)(F)F)n3)n2)ccc1Cl`
Result: 0
